src = patent US4959363A

- assay.notes: In vitro maximum tolerated dose (MTL), Vero cells
- Assay type: cell-based, African Green Monkey
- stated.conditions: monkey, vero cells, In Vitro
outcome.measure: MNTC at 72 h

The examples below pair each entry with its known result.
compound: CCn1c(N)c(C(N)=O)c(=O)c2ccc(-c3ccncc3)cc21 [Example 40b]
result.value: > 12.5 µg/mL
//
compound: Cc1ccc(-n2cc(C(N)=O)c(=O)c3ccc(-c4ccncc4)cc32)cc1C
result.value: > 100 µg/mL
//
compound: O=C(NCN1CCCCC1)c1cn(-c2ccc(F)cc2)c2cc(-c3ccncc3)ccc2c1=O
result.value: > 12.5 µg/mL
//
compound: NC(=O)c1cn(-c2ccc(Br)cc2)c2cc(-c3ccncc3)ccc2c1=O
result.value: > 12.5 µg/mL

Pending compound:
Entry NC(=O)c1cn(-c2ccc(F)cc2F)c2cc(-c3ccncc3)ccc2c1=O ; MNTC at 72 h = 3.1 µg/mL

----------
- Design: species or system albino mice
- stated.conditions: mouse
outcome.measure: In Vivo MTL (Maximum tolerated dose)
Reply with just the number.

compound: NC(=O)c1cn(-c2ccccc2F)c2cc(-c3ccncc3)ccc2c1=O
In Vivo MTL (Maximum tolerated dose): 100
--
compound: Cc1ccc(-n2cc(C(N)=O)c(=O)c3ccc(-c4ccncc4)cc32)cc1
In Vivo MTL (Maximum tolerated dose): 50
--
compound: CCn1cc(C(N)=O)c(=O)c2ccc(-c3cccnc3)cc21 [Example 27b]
In Vivo MTL (Maximum tolerated dose): 100
--
compound: CCn1cc(C(N)=O)c(=O)c2ccc(-c3cc(C)nc(C)c3)cc21
In Vivo MTL (Maximum tolerated dose): 25
--
compound: CCn1c(=O)c(C(N)=O)c(O)c2ccc(-c3ccncc3)cc21 [Example 38c]
In Vivo MTL (Maximum tolerated dose): 100

The compound listed as Cn1cc(C(N)=O)c(=O)c2ccc(-c3ccncc3)cc21 shows In Vivo MTL (Maximum tolerated dose) equal to 25

Entry NC(=O)c1cn(-c2ccc(F)cc2)c2cc(-c3cc[n+]([O-])cc3)ccc2c1=O ; In Vivo MTL (Maximum tolerated dose) = 100

----------
- assay.notes: In vitro maximum tolerated dose (MTL), Vero cells
- Assay type: cell-based, African Green Monkey
- stated.conditions: monkey; In Vitro, Vero cells
outcome.measure: MNTC at 72 h (µg/mL)
Give the quantity in µg/mL, number only.

Notebook: CCCCCn1cc(C(N)=O)c(=O)c2ccc(-c3ccncc3)cc21 , MNTC at 72 h read as 6.2
